Target: HLA-A*6801 (human)
Test: inhibition of 125I-labelled probe peptide binding to purified HLA, gel filtration
Details: remark: other sources report otherwise
measure name: IC50

Write down IC50 measured for item VSIPWTHK (modifications not checked) [HBV POL 50 peptide 26.0024 (VSIPWTHK)]
20 µM

Data origin: patent US20090311283A1
